B1: Hairpin Ribozyme (parent)
chain: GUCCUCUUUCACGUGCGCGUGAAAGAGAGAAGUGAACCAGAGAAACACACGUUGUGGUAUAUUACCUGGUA

- Variants of: B1
- METHOD NOTES: self-cleavage, relative activity (ratio to wild type); higher = more cleavage; co-transcriptional
Collected self-cleavage values appear next to each entry.
MEASURED ATTRIBUTE: self-cleavage

1. A45C U55G ... 0.0998
2. C16G A22G ... 0.828
3. C4A A44U ... 0.239
4. A24C A64C ... 0.192
5. G42U A61C ... 0.193
6. C16U C50U ... 0.366
7. G42A A71C ... 0.566
8. U62A A64G ... 0.093
9. U14C A28G ... 0.65
10. G25A A64G ... 0.469
11. G29C U55A ... 0.164
12. C18U A43G ... 0.103
13. C4U A44C ... 0.102
14. C12U A36C ... 0.674
15. A61C C65A ... 0.165
16. C16G A28G ... 0.959
17. A11U G68C ... 0.13
18. A28U A43U ... 0.132
19. C18U U55A ... 0.128
20. G1A C18A ... 0.185
21. A24C A35G ... 0.864
22. A23U A47C ... 0.386
23. G17C U20A ... 0.736
24. A24C U53G ... 0.733
25. G40U C50G ... 0.136
26. C46U G51U ... 0.256
